Please go through the items and note down their IC50.
Target: human EGFR exon 20 insertion ASV (V769_D770insASV) (Homo sapiens (Human), UniProt P00533, INS769ASV)
Sequence (P00533 other isoform, or with tags, fused parts or gaps ins ASV behind 769): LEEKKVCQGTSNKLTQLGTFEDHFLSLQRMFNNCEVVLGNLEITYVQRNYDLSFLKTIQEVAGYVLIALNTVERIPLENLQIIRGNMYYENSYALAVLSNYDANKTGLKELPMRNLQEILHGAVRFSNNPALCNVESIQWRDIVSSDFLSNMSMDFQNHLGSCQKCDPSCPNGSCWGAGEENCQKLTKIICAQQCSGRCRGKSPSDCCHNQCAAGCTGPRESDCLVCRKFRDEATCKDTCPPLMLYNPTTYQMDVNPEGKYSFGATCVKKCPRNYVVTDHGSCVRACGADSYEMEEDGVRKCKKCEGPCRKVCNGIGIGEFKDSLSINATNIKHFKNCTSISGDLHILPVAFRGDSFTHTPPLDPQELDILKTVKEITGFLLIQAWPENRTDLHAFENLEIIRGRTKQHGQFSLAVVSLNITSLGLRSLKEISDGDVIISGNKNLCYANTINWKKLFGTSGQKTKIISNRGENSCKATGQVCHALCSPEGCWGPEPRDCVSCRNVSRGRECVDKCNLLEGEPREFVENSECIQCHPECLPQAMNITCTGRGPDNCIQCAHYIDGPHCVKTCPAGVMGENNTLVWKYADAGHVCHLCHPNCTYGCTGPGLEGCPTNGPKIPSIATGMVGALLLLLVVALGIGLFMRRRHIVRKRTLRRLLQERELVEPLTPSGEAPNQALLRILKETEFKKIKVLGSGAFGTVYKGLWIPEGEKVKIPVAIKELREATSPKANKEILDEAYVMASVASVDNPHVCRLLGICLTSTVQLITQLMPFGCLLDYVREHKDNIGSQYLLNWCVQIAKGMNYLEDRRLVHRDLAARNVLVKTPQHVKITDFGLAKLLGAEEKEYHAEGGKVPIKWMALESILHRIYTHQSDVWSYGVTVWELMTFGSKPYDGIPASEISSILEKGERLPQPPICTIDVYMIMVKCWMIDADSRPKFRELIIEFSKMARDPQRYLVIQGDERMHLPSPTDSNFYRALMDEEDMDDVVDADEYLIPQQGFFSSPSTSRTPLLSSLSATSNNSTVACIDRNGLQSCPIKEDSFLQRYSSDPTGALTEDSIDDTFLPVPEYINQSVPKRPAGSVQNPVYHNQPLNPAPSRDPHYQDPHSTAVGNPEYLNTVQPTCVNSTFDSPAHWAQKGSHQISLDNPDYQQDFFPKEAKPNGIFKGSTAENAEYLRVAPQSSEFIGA
Assay: Ba/F3-EGFR-Exon20-ASV cell anti-proliferative assay (CellTiter 96 MTS, 72 h);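 note: Ba/F3 cells bearing the EGFR exon 20 ASV insertion, a line able to proliferate without IL-3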
Conditions: Ba/F3-EGFR-Exon20-ASV cells

What value of measured IC50 is listed for C=CC(=O)Nc1cc(Nc2ncc(N(C)C(=O)C(C)C)c(-c3cn(C)c4ccccc34)n2)c(OC)cc1N(C)CCN(C)C ?
100 to 500 nM

What value of measured IC50 is listed for C=CC(=O)Nc1cc(Nc2nccc(-c3c(C(=O)NC)n(C)c4ccccc34)n2)c(OC)cc1N(C)CCN(C)C ?
100 to 500 nM

What value of measured IC50 is listed for C=CC(=O)Nc1cc(Nc2ncc(Cl)c(-c3cnn4ccccc34)n2)c(OC)cc1N(C)CCN(C)C ?
< 100 nM

What value of measured IC50 is listed for C=CC(=O)Nc1cc(Nc2ncc(P(C)(C)=O)c(-c3cn(C)c4ccccc34)n2)c(OC)cc1N(C)CCN(C)C ?
> 1000 nM

What value of measured IC50 is listed for C=CC(=O)Nc1cc(Nc2ncc(C(=O)OC(C)C)c(-c3c[nH]c4ncccc34)n2)c(OC)cc1N(C)CCN(C)C ?
< 100 nM

What value of measured IC50 is listed for C=CC(=O)Nc1cc(Nc2ncc(C(=O)OC(C)C)c(-n3ccc4ccccc43)n2)c(OC)cc1N(C)CCN(C)C ?
< 100 nM

What value of measured IC50 is listed for C=CC(=O)Nc1cc(Nc2ncc(C(=O)OC)c(-n3ccc4ccccc43)n2)c(OC)cc1N(C)C[C@H]1CCCN1C ?
< 100 nM

###

Please go through the items and note down their IC50.
Biological target: human EGFR exon 20 insertion NPG (H773_V774insNPG) (Homo sapiens, UniProt P00533, INS773NPG, cells depend on it)
Sequence (P00533 with tags, fused parts or gaps INS773NPG limits assumed): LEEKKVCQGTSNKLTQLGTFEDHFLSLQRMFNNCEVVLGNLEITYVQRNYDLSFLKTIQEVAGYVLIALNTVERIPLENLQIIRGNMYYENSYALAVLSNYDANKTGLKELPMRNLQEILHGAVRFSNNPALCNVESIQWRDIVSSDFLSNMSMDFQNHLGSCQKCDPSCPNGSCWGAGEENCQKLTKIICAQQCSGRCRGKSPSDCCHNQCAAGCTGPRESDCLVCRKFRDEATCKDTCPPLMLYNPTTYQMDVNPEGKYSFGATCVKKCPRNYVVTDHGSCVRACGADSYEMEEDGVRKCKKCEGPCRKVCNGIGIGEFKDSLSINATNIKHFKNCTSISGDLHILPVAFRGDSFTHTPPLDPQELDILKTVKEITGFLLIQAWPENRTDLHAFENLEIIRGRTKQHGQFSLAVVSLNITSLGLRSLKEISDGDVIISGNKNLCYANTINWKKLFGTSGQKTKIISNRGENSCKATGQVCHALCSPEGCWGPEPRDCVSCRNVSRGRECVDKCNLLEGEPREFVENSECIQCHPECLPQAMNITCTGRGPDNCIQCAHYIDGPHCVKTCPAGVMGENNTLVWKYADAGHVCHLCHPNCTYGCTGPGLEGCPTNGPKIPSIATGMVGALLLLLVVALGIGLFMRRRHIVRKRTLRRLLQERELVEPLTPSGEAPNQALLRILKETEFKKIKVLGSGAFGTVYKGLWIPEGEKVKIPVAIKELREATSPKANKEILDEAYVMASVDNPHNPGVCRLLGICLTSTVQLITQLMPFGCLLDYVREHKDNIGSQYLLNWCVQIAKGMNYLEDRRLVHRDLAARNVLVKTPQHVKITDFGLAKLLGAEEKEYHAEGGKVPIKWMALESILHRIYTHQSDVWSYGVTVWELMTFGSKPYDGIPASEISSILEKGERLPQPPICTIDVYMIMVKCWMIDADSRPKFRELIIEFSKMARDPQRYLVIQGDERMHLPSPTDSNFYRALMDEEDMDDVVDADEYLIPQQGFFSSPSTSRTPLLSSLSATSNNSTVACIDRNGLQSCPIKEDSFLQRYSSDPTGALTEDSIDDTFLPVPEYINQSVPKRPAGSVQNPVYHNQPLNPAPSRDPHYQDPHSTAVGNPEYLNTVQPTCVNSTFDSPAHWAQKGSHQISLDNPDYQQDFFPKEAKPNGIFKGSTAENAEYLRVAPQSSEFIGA
Assay: Ba/F3-EGFR-Exon20-NPG cell anti-proliferative assay (CellTiter 96 MTS, 72 h)
Type: cell-based
Details: read-out: EGFR exon 20 NPG insertion IC50

What value of measured IC50 is listed for C=CC(=O)Nc1cc(Nc2ncnc(-c3c(C4CCOCC4)n(C)c4ccccc34)n2)c(OC)cc1N(C)CCN(C)C [Example 4] ?
< 100 nM

What value of measured IC50 is listed for C=CC(=O)Nc1cc(Nc2ncc(C(=O)OC(C)C)c(-c3c[nH]c4ccccc34)n2)c(OC)cc1N(C)CCN(C)C [Example 30] ?
< 100 nM

What value of measured IC50 is listed for C=CC(=O)Nc1cc(Nc2nccc(-c3cn(C)c4cc(C(=O)OC)ccc34)n2)c(OC)cc1N(C)CCN(C)C [Example 82] ?
< 100 nM

What value of measured IC50 is listed for C=CC(=O)Nc1cc(Nc2ncc(Cl)c(-c3cnn4ccccc34)n2)c(OC)cc1N(C)CCN1CCOCC1 [Example 54] ?
500 to 1000 nM

What value of measured IC50 is listed for C=CC(=O)Nc1cc(Nc2ncc(C(=O)OC(C)C)c(-c3c[nH]c4ncccc34)n2)c(OC)cc1N(C)CCN(C)C [Example 66] ?
< 100 nM

What value of measured IC50 is listed for C=CC(=O)Nc1cc(Nc2ncc(NC(=O)C(C)C)c(-c3cn(C)c4ccccc34)n2)c(OC)cc1N(C)CCN(C)C [Example 39] ?
< 100 nM

What value of measured IC50 is listed for C=CC(=O)Nc1cc(Nc2ncc(C(=O)OC(C)C)c(-c3cn(C)c4ccccc34)n2)c(OC)cc1N(C)CC1CCCN1C (stereo not shown) [Example 17] ?
< 100 nM

What value of measured IC50 is listed for C=CC(=O)Nc1cc(Nc2ncc(C(=O)OC(C)C)c(-c3cnn4ccccc34)n2)c(OC)cc1N(C)CCN(C)C [Example 32] ?
< 100 nM

What value of measured IC50 is listed for C=CC(=O)Nc1cc(Nc2ncc(C(=O)OC(C)C)c(-n3cc(C)c4ccccc43)n2)c(OC)cc1N(C)CCN(C)C [Example 97] ?
< 100 nM

What value of measured IC50 is listed for C=CC(=O)Nc1cc(Nc2nccc(-c3cn(C)c4ccc(C(=O)OC)cc34)n2)c(OC)cc1N(C)CCN(C)C [Example 81] ?
< 100 nM

What value of measured IC50 is listed for C=CC(=O)Nc1cc(Nc2nccc(-c3c(-c4cncc(Cl)c4)n(C)c4ccccc34)n2)c(OC)cc1N(C)CCN(C)C [Example 6] ?
< 100 nM

What value of measured IC50 is listed for C=CC(=O)Nc1cc(Nc2ncc(C(=O)OC)c(-c3cn(N(C)C)c4ccccc34)n2)c(OC)cc1N(C)CCN(C)C [Example 76] ?
< 100 nM

What value of measured IC50 is listed for C=CC(=O)Nc1ccc(OC)c(Nc2ncc(C#N)c(-c3cn(C)c4cc(OCCCN(C)C)ccc34)n2)c1 [Example 19] ?
< 100 nM

What value of measured IC50 is listed for C=CC(=O)Nc1cc(Nc2ncc(C(=O)OCC)c(-c3cn(C)c4ccccc34)n2)c(OC)cc1N(C)C[C@H]1CCCN1C [Example 65] ?
< 100 nM

What value of measured IC50 is listed for C=CC(=O)Nc1cc(Nc2nccc(-c3c(-c4ccccc4)n(C)c4ccccc34)n2)c(OC)cc1N(C)CCN(C)C [Example 7] ?
< 100 nM

What value of measured IC50 is listed for C=CC(=O)Nc1cc(Nc2ncc(C(=O)OC)c(-c3cn(C)c4ccccc34)n2)c(OC)cc1C#CCN(C)C [Example 68] ?
< 100 nM

What value of measured IC50 is listed for C=CC(=O)Nc1cc(Nc2ncnc(-c3c(C4=CCOCC4)n(C)c4ccccc34)n2)c(OC)cc1N(C)CCN(C)C [Example 2] ?
< 100 nM

What value of measured IC50 is listed for C=CC(=O)Nc1cc(Nc2ncc(Cl)c(-c3cnn4ccccc34)n2)c(OC)cc1N(C)CCN(C)C [Example 52] ?
< 100 nM

What value of measured IC50 is listed for C=CC(=O)Nc1cc(Nc2ncc(C(=O)O[C@@H]3CCOC3)c(-c3cn(C)c4ccccc34)n2)c(OC)cc1N(C)CCN(C)C [Example 37] ?
< 100 nM

What value of measured IC50 is listed for C=CC(=O)Nc1cc(Nc2ncc(C(=O)OC)c(-c3cn(C)c4ccccc34)n2)c(OC)cc1CCCN(C)C [Example 69] ?
< 100 nM

What value of measured IC50 is listed for C=CC(=O)Nc1cc(Nc2ncc(C(=O)OC3CN(C)C3)c(-c3cn(C)c4ccccc34)n2)c(OC)cc1N(C)CCN(C)C [Example 12] ?
> 1000 nM

What value of measured IC50 is listed for C=CC(=O)Nc1cc(Nc2ncc(C(=O)OC(C)C)c(-c3cn(C)c4ncccc34)n2)c(OC)cc1N(C)CCNC [Example 74] ?
< 100 nM

What value of measured IC50 is listed for C=CC(=O)Nc1cc(Nc2ncc(Cl)c(-c3cn(C)c4ccccc34)n2)c(OC)cc1O[C@@H](COCC)CN(C)C [Example 44] ?
100 to 500 nM

What value of measured IC50 is listed for C=CC(=O)Nc1ccc(OC)c(Nc2ncc(C#N)c(-c3cn(C)c4cc(OCC5CCCN5C)ccc34)n2)c1 (stereo not shown) [Example 21] ?
< 100 nM

What value of measured IC50 is listed for C=CC(=O)Nc1cc(Nc2ncc(C(=O)OC(C)C)c(-c3cn(C)c4ccccc34)n2)c(OC)cc1OCCN(C)C [Example 67] ?
< 100 nM

What value of measured IC50 is listed for C=CC(=O)Nc1cc(Nc2ncc(C(=O)OC(C)C)c(-c3cn(C)c4ccccc34)n2)c(OC)cc1N(C)CCNC [Example 58] ?
< 100 nM

What value of measured IC50 is listed for C=CC(=O)Nc1cc(Nc2ncc(Cl)c(-c3cn(C)c4ccccc34)n2)c(OC)cc1C#CCN(C)C [Example 45] ?
100 to 500 nM

What value of measured IC50 is listed for C=CC(=O)Nc1cc(Nc2ncc(Cl)c(-c3cnn4ccccc34)n2)c(OC)cc1N(C)CCN(CC)CC [Example 53] ?
100 to 500 nM

###

Biological target: Her2 exon 20 YVMA insertion (A775_G776ins YVMA) (Homo sapiens (Human), UniProt P04626, INS775YVMA)
Sequence (P04626 other isoform, or with tags, fused parts or gaps ins YVMA behind 775): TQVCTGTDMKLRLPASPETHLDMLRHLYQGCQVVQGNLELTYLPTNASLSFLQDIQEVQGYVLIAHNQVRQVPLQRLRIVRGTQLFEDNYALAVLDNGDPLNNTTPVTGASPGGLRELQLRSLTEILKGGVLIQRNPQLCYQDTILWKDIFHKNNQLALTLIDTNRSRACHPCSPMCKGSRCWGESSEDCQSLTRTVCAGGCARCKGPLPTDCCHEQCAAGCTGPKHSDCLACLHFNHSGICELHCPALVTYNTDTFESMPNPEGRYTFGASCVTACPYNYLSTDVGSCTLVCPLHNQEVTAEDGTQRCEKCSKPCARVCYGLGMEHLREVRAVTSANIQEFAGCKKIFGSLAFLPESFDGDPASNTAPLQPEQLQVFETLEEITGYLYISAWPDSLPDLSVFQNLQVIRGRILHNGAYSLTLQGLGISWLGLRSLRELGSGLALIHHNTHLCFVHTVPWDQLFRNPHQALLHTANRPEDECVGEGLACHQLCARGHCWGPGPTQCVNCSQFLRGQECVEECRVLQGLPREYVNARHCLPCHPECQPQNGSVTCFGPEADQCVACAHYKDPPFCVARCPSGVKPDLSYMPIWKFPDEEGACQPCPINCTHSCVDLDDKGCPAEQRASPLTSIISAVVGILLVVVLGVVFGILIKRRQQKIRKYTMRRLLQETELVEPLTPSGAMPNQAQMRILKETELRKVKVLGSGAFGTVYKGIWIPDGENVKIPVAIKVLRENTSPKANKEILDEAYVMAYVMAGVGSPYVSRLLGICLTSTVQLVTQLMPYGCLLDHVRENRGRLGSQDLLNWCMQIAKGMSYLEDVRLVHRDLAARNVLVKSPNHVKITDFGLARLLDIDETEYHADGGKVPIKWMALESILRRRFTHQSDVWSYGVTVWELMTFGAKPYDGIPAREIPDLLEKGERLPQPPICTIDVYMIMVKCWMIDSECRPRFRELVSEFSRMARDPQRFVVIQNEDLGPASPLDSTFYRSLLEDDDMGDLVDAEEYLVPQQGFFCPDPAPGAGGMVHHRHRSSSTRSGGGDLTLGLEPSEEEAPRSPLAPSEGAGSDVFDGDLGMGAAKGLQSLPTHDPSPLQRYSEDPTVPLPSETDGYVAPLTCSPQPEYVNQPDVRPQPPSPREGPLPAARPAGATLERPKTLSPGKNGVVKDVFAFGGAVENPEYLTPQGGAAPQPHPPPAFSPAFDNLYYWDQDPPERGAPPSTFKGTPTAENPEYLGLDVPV
Experiment: Ba/F3-Her2 Exon20 YVMA cell anti-proliferative assay (CellTiter 96 MTS, 72 h)
Details: Ba/F3-Her2 Exon20 YVMA cells
pIC50: −log10 of the molar value.
RECORDED METRIC: pIC50

What value of measured pIC50 is listed for C=CC(=O)Nc1cc(Nc2ncc(C(=O)OC(C)C)c(-n3ccc4ccccc43)n2)c(OC)cc1N(C)C[C@H]1CCCN1C ?
6.30 to 7.00

What value of measured pIC50 is listed for C=CC(=O)Nc1cc(Nc2ncc(Cl)c(-c3cnn4ccccc34)n2)c(OC)cc1N1CCC(N(C)C)C1 (stereo not shown) ?
< 6.00

What value of measured pIC50 is listed for C=CC(=O)Nc1cc(Nc2nccc(-c3cn(C)c4cc(C(=O)OC(C)C)ccc34)n2)c(OC)cc1N(C)CCN(C)C ?
6.00 to 6.30

What value of measured pIC50 is listed for C=CC(=O)Nc1cc(Nc2ncc(C(=O)OC(C)C)c(-c3c[nH]c4ncccc34)n2)c(OC)cc1N(C)CCN(C)C ?
> 7.00
